Target: cloned human δ receptor (Homo sapiens, UniProt P41143)
Construct: expressed in transfected cells; host or cells: human 293S (HEK-293S) cells, geneticin-selected
Sequence (P41143 whole entry): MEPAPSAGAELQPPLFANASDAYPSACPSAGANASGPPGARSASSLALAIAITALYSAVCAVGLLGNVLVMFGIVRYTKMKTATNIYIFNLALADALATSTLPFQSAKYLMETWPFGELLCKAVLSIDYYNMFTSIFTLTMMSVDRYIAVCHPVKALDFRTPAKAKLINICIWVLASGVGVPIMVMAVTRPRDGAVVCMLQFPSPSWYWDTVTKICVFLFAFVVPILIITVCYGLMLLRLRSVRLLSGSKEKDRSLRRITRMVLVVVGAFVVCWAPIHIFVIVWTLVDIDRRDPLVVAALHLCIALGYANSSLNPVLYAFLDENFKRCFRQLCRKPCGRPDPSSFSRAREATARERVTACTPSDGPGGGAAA
Test: GTP[γ]35S binding functional assay, HEK-293S membranes expressing cloned human δ receptor (HDELTA)
Type: biochemical
Description: • A. Human 293S cells expressing cloned human μ, δ, and κ receptors and neomycin resistance were grown in suspension at 37° C. and 5% CO2 in shaker flasks containing calcium-free DMEM10% FBS, 5% BCS, 0.1% Pluronic F-68, and 600 μg/ml geneticin. • B. Mouse and rat brains were weighed and rinsed in ice-cold PBS (containing 2.5 mM EDTA, pH 7.4). […]
measured-metric: Emax

Solved entries (count: 2):
CC(C)N(C(=O)c1ccc(C(=C2CCN(Cc3ccco3)CC2)c2cccc3cccnc23)cc1)C(C)C [Example 7]	96 to 102%
CC(C)N(C(=O)c1ccc(C(=C2CCN(Cc3cccs3)CC2)c2cccc3cccnc23)cc1)C(C)C [Example 4]	96 to 102%

Please give Emax for each item listed below.
1. CC(C)N(C(=O)c1ccc(C(=C2CCN(Cc3ccccc3)CC2)c2cccc3cccnc23)cc1)C(C)C [Example 1]
2. COc1ccc(CN2CCC(=C(c3ccc(C(=O)N(C(C)C)C(C)C)cc3)c3cccc4cccnc34)CC2)cc1 [Example 8]

Marked response:
["96 to 102%", "96 to 102%"]
